# tgt: Histone-lysine N-methyltransferase EHMT2 (Homo sapiens)
# assay-protocol: qHTS Assay for Inhibitors of Histone Lysine Methyltransferase G9a; also: nearly all actives have a fitted effect of over 75% in size; also: potency is read from the fitted curve at half-maximal effect
# measurement-setup: G9a H3K9 monomethylation, AlphaScreen, 2 h; series mostly up to 59 µM
About 31,000 (8.9%) of roughly 350,000 compounds were called active. Not shown: some 15% with an inconclusive outcome. The sample as a whole holds a higher share of actives than the screen did.
measured-metric: Potency

| molecule | Potency |
| --- | --- |
| CN(C)/N=C/c1cc(Cl)cc([N+](=O)[O-])c1O | inactive |
| CC(/C=C/c1ccco1)=N/NC(=O)C1COc2ccccc2O1 (centres undefined) | 56.2 µM (active) |
| CCOc1ccc(C(=O)c2cn(Cc3ccccc3OC)c3ccc(F)cc3c2=O)cc1 | inactive |
| O=C(Cc1cc(=O)[nH][nH]1)N/N=C/c1ccccc1[N+](=O)[O-] | inactive |
| Cc1ccc(NC(=O)Nc2sc3nc4n(c(=O)c3c2C)CCC(C)CC4)c(Cl)c1 (centres undefined) | inactive |
| O=c1cnnc(Nc2ccccc2)[nH]1 | inactive |

In: Consider the molecule COc1cccc(/C=N/NC(=O)c2[nH]nc3c2CCc2ccccc2-3)c1O and give its measured Potency.
Out: 50.1 µM (active)

In: Now try O=S(=O)(NCCc1ccccc1)c1ccccc1 .
Out: inactive

In: Now try Cc1c(CNC2CCCCC2)c(C(=O)O)c(C)n1Cc1cccc(Cl)c1 .
Out: inactive

In: Now try CCOc1cc(C(=O)OCC(=O)Nc2cccc(C)c2)ccc1OCC(=O)N1CCOCC1 .
Out: inactive
